# maps each entry to its fraction of imaged embryos annotated as normal kidney
- Tested on: Danio rerio Tg(wt1b:EGFP) embryo, pronephros
- ASSAY NOTES: fraction of imaged embryos annotated as normal kidney; higher = less nephrotoxic; extreme values may be limits of the assay
- SETTINGS: 25 µM; exposure: 24-48 hpf
Counter-ions that a name gives are not always drawn.
RECORDED ENDPOINT: fraction of imaged embryos annotated as normal kidney

COMPOUND: NC(CO)C(=O)NNCc1ccc(O)c(O)c1O (configuration not stated) [Benserazide hydrochloride]
RESULT VALUE: 0.667

COMPOUND: COc1ccccc1N1CCN(CC(O)COc2cccc3ccccc23)CC1 (configuration not stated) [Naftopidil dihydrochloride]
RESULT VALUE: 0.833

COMPOUND: Cc1cn([C@H]2C[C@H](N=[N+]=[N-])[C@@H](CO)O2)c(=O)[nH]c1=O
RESULT VALUE: 1

COMPOUND: O=C1c2c(O)ccc(O)c2C(=O)c2c(NCCNCCO)ccc(NCCNCCO)c21 [Mitoxantrone dihydrochloride]
RESULT VALUE: 0.667

COMPOUND: CCOC(=O)[C@H](CCc1ccccc1)N[C@@H](C)C(=O)N1CCC[C@H]1C(=O)O [Enalapril maleate]
RESULT VALUE: 0.667

COMPOUND: S=c1[nH]cnc2nc[nH]c12
RESULT VALUE: 0.75

COMPOUND: CC1(C)O[C@@H]2[C@@H](CO[C@@]3(COS(N)(=O)=O)OC(C)(C)O[C@@H]23)O1 [Topiramate]
RESULT VALUE: 0.583

COMPOUND: O=c1[nH]c(=O)n([C@H]2C[C@H](O)[C@@H](CO)O2)cc1F
RESULT VALUE: 0.5

COMPOUND: OCCN1CCN(CCCN2c3ccccc3C=Cc3ccccc32)CC1 [Opipramol dihydrochloride]
RESULT VALUE: 0.75

COMPOUND: CN(C)CCN(Cc1ccccc1)c1ccccn1 [Tripelennamine hydrochloride]
RESULT VALUE: 1

COMPOUND: CCCCC[C@H](O)/C=C/[C@H]1[C@H](O)CC(=O)[C@@H]1CCCCCCC(=O)O
RESULT VALUE: 0.75

COMPOUND: Cc1c(N)c(=O)n(-c2ccccc2)n1C
RESULT VALUE: 0.917

COMPOUND: Nc1nnc(-c2cccc(Cl)c2Cl)c(N)n1
RESULT VALUE: 0.9

COMPOUND: CCN1CCN(C(=O)N[C@@H](C(=O)N[C@@H]2C(=O)N3[C@@H]2SC(C)(C)[C@@H]3C(=O)O)c2ccccc2)C(=O)C1=O [Piperacillin sodium salt]
RESULT VALUE: 0.667

COMPOUND: C#C[C@]1(O)CC[C@H]2[C@@H]3CCC4=CCCC[C@@H]4[C@H]3CC[C@@]21C
RESULT VALUE: 0.917

COMPOUND: CC(NCCC(c1ccccc1)c1ccccc1)c1ccccc1 (configuration not stated) [Fendiline hydrochloride]
RESULT VALUE: 0.727

COMPOUND: Clc1ccc2nsnc2c1NC1=NCCN1 [Tizanidine hydrochloride]
RESULT VALUE: 0.833

Measured values drawn from the supplement of paper PMC7366291 for this set.
